binders and their reported kon
Biological target: T1, Human IL-11 (human, UniProt P20809 22-199)
T1 construct: Recombinant human IL-11 (GenScript Cat. No. Z03108-1) or IL-11 secreted by human cells; the mature form is said to have 178 residues; also called recombinant human IL-11; endogenously produced IL-11
T1 sequence: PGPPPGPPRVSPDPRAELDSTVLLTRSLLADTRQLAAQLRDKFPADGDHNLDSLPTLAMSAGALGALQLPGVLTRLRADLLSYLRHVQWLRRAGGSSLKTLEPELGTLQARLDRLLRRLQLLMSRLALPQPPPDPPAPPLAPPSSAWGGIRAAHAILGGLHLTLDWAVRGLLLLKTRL
Assay: SPR (BIAcore T200) single cycle kinetics, human IL-11 on CM5 chip, 1:1 model
Please respond with the number in M⁻¹ s⁻¹ and leave the unit unwritten.

Please review the entries below; each comes with its answer.
02Q (antibody, IgG1, V domains shown, C91Q variant of the YU100-G08 VL) VH: QVQLVQSGGGVVQPGRSLRLSCAASGFTFSSYGMHWVRQAPGKGLEWVAVISYDGSNKYYADSVKGRFTISRDNSKNTLYLQMNSLRAEDTAVYYCAKIGATDPLDYWGQGTLVTVSS VL: QSALTQPRSVSGSPGQSVTLSCTGTSSDVGGYNYVSWYQHYPGKAPKLMIFDVNERSSGVPDRFSGSKSGNTASLTISGLQAEDEADYYCQSYAGRYTWMFGGGTKVTVLG	426000
YU100-G08_02A (antibody, V domains shown, C91A variant of the YU100-G08 VL) VH: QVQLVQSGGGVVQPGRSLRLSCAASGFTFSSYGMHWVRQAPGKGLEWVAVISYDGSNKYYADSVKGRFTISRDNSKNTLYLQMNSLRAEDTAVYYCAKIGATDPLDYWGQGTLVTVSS VL: QSALTQPRSVSGSPGQSVTLSCTGTSSDVGGYNYVSWYQHYPGKAPKLMIFDVNERSSGVPDRFSGSKSGNTASLTISGLQAEDEADYYCASYAGRYTWMFGGGTKVTVLG	699000
02S (antibody, IgG1, V domains shown, C91S variant of the YU100-G08 VL) VH: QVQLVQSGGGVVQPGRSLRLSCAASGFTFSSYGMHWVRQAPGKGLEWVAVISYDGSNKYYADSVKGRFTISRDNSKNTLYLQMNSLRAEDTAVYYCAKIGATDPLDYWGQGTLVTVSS VL: QSALTQPRSVSGSPGQSVTLSCTGTSSDVGGYNYVSWYQHYPGKAPKLMIFDVNERSSGVPDRFSGSKSGNTASLTISGLQAEDEADYYCSSYAGRYTWMFGGGTKVTVLG	1.28e+06
02V (antibody, IgG1, V domains shown, C91V variant of the YU100-G08 VL) VH: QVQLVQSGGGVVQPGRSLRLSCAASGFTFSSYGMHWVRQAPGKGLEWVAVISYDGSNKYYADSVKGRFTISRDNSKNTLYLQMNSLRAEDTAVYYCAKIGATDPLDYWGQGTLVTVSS VL: QSALTQPRSVSGSPGQSVTLSCTGTSSDVGGYNYVSWYQHYPGKAPKLMIFDVNERSSGVPDRFSGSKSGNTASLTISGLQAEDEADYYCVSYAGRYTWMFGGGTKVTVLG	207000
02I (antibody, IgG1, V domains shown, C91I variant of the YU100-G08 VL) VH: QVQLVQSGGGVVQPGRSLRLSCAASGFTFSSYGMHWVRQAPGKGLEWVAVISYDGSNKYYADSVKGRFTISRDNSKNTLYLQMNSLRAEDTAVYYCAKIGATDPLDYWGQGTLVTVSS VL: QSALTQPRSVSGSPGQSVTLSCTGTSSDVGGYNYVSWYQHYPGKAPKLMIFDVNERSSGVPDRFSGSKSGNTASLTISGLQAEDEADYYCISYAGRYTWMFGGGTKVTVLG	825000

Q: Item under review: 02T (antibody, IgG1, V domains shown, C91T variant of the YU100-G08 VL) VH: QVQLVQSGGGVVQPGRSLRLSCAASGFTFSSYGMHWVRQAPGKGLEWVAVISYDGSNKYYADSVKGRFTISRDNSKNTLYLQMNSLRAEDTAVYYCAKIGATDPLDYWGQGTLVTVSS VL: QSALTQPRSVSGSPGQSVTLSCTGTSSDVGGYNYVSWYQHYPGKAPKLMIFDVNERSSGVPDRFSGSKSGNTASLTISGLQAEDEADYYCTSYAGRYTWMFGGGTKVTVLG . Reported kon?
Result: 59200

Q: Item under review: 02G (antibody, IgG1, V domains shown, C91G variant of the YU100-G08 VL) VH: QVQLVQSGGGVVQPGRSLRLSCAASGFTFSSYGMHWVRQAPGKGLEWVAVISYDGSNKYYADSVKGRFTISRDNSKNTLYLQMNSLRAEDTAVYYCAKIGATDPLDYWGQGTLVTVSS VL: QSALTQPRSVSGSPGQSVTLSCTGTSSDVGGYNYVSWYQHYPGKAPKLMIFDVNERSSGVPDRFSGSKSGNTASLTISGLQAEDEADYYCGSYAGRYTWMFGGGTKVTVLG . Reported kon?
Result: 27200
